tested on: Trichosporon asahii; experiment: Antifungal activity against Trichosporon asahii 1188 after 24 hrs by microdilution broth method; type: functional; details: Trichosporon asahii, 1188, 24 h

smiles str: O=C(Nc1cc(C(F)(F)F)cc(C(F)(F)F)c1)c1cc([N+](=O)[O-])ccc1O
target: Trichosporon asahii
sign: >
MIC (µM): 500
//
smiles str: O=C(Nc1ccc(C(F)(F)F)cc1)c1ccc([N+](=O)[O-])cc1O
target: Trichosporon asahii
sign: =
MIC (µM): 31.2
//
smiles str: O=C(Nc1cccc(I)c1)c1ccc([N+](=O)[O-])cc1O
target: Trichosporon asahii
sign: >
MIC (µM): 500
//
smiles str: O=C(Nc1cccc(Br)c1)c1ccc([N+](=O)[O-])cc1O
target: Trichosporon asahii
sign: =
MIC (µM): 31.2
//
smiles str: O=C(Nc1ccc([N+](=O)[O-])cc1)c1cc([N+](=O)[O-])ccc1O
target: Trichosporon asahii
sign: >
MIC (µM): 500
